- TESTED_TARGET: YES1 (UniProt P07947)
- Sequence (P07947 whole entry, looked up): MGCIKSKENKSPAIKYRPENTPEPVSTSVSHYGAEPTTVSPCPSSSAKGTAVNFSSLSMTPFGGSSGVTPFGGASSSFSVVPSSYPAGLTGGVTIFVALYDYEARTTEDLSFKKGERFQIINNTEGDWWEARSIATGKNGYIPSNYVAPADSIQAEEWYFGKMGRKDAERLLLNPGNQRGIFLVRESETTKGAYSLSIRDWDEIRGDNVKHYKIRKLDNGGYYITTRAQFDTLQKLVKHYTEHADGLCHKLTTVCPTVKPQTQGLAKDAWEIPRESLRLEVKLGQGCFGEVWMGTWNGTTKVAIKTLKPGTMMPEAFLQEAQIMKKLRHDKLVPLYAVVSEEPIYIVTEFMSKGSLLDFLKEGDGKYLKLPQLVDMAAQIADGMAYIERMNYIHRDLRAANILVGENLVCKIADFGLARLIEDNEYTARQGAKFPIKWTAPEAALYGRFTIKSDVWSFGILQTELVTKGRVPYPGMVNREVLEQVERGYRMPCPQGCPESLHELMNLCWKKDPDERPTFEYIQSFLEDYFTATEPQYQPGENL
- TEST_METHOD_NOTES: log2 fold change, soluble protein after heating vs DMSO (PISA); higher = thermal stabilisation; K562 cells, 10 uM, 30 min; active = over 0.2 and 3.5 SD of the protein, either way, in both replicates (recomputed)
Targets with a hit are over-represented here; the source holds about 7,900 in all. About 0.6% of all pairs of compound and target were hits.
Below, each of the molecules is paired with its reported log2 fold change value.
In your answer, state the number alone without any accompanying words.

Please review the following examples before continuing.
CC(C)c1cnn2c(NCc3ccccc3)cc(NCCCCCCN)nc12	0
Fc1ccc(Cl)cc1-c1nc(Nc2ccncc2)c2nccnc2n1	-0.179

Item under review: `O=C(Nc1cccc(Nc2ncc(Br)c(NCCc3cnc[nH]3)n2)c1)N1CCCC1` . Reported log2 fold change?
-0.139

How about `Cc1ccc(NC(=O)c2cccc(N(C)C)c2)cc1NC(=O)c1ccc(O)cc1` ?
0.037

Reference for the values: the supplement of paper PMC10849652
